Target: Ubiquitin carboxyl-terminal hydrolase 1 (Homo sapiens) (UniProt O94782)
Sequence (O94782 whole entry, looked up): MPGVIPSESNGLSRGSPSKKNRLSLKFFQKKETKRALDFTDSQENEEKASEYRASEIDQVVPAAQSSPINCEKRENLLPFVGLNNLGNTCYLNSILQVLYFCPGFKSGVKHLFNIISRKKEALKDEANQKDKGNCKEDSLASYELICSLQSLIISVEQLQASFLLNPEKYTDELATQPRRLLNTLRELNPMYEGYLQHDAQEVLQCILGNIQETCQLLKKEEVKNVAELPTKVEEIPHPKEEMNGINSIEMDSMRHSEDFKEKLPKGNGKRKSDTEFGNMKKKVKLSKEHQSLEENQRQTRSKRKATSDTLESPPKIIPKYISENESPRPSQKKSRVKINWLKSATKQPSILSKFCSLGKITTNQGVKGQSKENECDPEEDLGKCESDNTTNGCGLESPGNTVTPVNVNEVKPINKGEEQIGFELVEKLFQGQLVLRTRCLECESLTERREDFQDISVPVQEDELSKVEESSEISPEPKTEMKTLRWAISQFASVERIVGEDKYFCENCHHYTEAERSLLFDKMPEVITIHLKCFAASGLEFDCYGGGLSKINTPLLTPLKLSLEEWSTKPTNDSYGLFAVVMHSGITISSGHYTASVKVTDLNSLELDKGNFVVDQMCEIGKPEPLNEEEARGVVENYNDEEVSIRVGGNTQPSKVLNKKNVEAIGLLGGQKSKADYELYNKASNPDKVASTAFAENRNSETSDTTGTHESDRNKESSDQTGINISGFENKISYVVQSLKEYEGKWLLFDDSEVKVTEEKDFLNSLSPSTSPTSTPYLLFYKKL
Assay: Inhibitors of USP1/UAF1: Pilot qHTS (AID 504865); note: nearly all actives have a fitted effect of over 35% in size
Details: purified USP1/UAF1, Ub-rhodamine cleavage fluorescence; series mostly up to 114 µM
Records with an inconclusive call do not appear. Activity calls are given as the source filed them. Calls come from the whole dose curve; as a rule, active = well fitted inhibition curve with a large enough effect; inconclusive = small, poorly fitted or top-dose-only effect; inactive = flat fitted curve, though single readings scatter.
Respond only with the outcome that fits, drawn from yes (1) for active, no (0) for inactive

Worked examples, 3 compounds total:
O=C(O)COc1cccc(-c2ocnc2-c2nc(-c3ccccc3)c(-c3ccccc3)o2)c1: yes (1)
CN(C)CCCSc1ccccc1NC(=O)/C=C\c1ccccc1: no (0)
NC1(C(=O)O)CCC1: no (0)

Problem: # fetch the recorded call for `O=C(Nc1cc(C(=O)Nc2ccc(S(=O)(=O)O)cc2S(=O)(=O)O)cc(C(=O)Nc2ccc(S(=O)(=O)O)cc2S(=O)(=O)O)c1)Nc1cc(C(=O)Nc2ccc(S(=O)(=O)O)cc2S(=O)(=O)O)cc(C(=O)Nc2ccc(S(=O)(=O)O)cc2S(=O)(=O)O)c1` here
Solution: yes (1)

Problem: # fetch the recorded call for `C[C@](N)(C(=O)O)c1ccc(-c2nn[nH]n2)cc1` here
Solution: no (0)

// provenance: PubChem BioAssay (NCATS)
